# TARGET_ENTITY: human P2X3 receptor (Homo sapiens (Human), UniProt P56373)
# Sequence (P56373 whole entry): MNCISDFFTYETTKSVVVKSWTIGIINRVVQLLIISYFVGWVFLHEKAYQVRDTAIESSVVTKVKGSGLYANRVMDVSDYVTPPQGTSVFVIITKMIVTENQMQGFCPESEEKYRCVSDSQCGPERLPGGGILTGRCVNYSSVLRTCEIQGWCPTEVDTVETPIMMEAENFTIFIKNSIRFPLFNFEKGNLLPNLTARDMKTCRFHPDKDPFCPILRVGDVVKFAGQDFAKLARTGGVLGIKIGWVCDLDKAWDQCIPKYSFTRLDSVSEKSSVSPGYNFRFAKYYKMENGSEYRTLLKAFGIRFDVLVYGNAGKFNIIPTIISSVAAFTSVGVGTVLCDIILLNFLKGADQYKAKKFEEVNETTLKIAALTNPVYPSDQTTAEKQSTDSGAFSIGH
# ASSAY_DETAILS: Evaluation of human P2X3 receptor inhibitory activity (Fluo-3 calcium fluorescence, FDSS 3000, ATP stimulation)
# Assay type: cell-based
# CONDITION_DETAILS: human P2X3 receptor, Test Example 1
QUANTITY_KIND: IC50
Give me the value, and tack the unit on after it.

Cc1nsc(Oc2ccc(/N=c3\[nH]c(=O)n(C[C@H](O)CO)c(=O)n3Cc3ccc(F)cc3)cc2F)n1 [Compound I-2707] ... 7 nM

Exam item: For the molecule CCn1c(=O)[nH]/c(=N\c2ccc(Oc3cncc(C(=O)O)c3)cc2)n(C[C@H]2CC[C@H](C)CC2)c1=O [Compound I-2352] , what IC50 is on record?
Marked response: 6 nM

Exam item: Next: O=c1[nH]/c(=N\c2ccc(Oc3ccon3)cc2)n(Cc2ccc(Cl)cc2)c(=O)n1C[C@H](O)CO [Compound I-2293]
Marked response: 6 nM

Exam item: Next: CC[C@@H](C)n1c(=O)[nH]/c(=N\c2ccc(Oc3ccnc(C(=O)O)c3)cc2)n(Cc2ccc(Cl)cc2)c1=O [Compound I-2482]
Marked response: 11 nM

###

# TARGET_ENTITY: human P2X3 receptor (Homo sapiens (Human), UniProt P56373)
# ASSAY_DETAILS: Evaluation of human P2X3 receptor inhibitory activity (Fluo-3 calcium fluorescence, FDSS 3000, ATP stimulation);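 further: stimulus was 50 nM ATP with fluorescence followed for 3 min, and the response per well was peak post-ATP fluorescence divided by the reading at measurement start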
# Type: cell-based
# CONDITION_DETAILS: human P2X3 receptor, Test Example 1
// classify: if (IC50 < 10 nM) yes else no

CCOC(=O)Cn1c(=O)[nH]/c(=N\c2ccc(Oc3ccon3)c(F)c2)n(Cc2ccc(Cl)cc2)c1=O ... yes
Cn1c(=O)[nH]/c(=N\c2ccc(Oc3cnc(C(=O)O)cn3)cc2)n(Cc2ccc(Cl)cc2)c1=O ... no
O=C(O)c1cc(Oc2ccc(/N=c3\[nH]c(=O)n(C4CC4)c(=O)n3Cc3ccc(Cl)cc3)cc2)ccn1 ... yes
C[C@@H](Cn1c(=O)[nH]/c(=N\c2ccc(OCC3CC3)cc2)n(Cc2ccc(Cl)cc2)c1=O)C(=O)O ... no

Exam item: Field: below-cutoff. Rule: recorded IC50 strictly less than 10 nM. Subject: CC(C)(O)Cn1c(=O)[nH]/c(=N\c2ccc(Oc3ccon3)cc2)n(Cc2ccc(Cl)cc2)c1=O
Marked response: no

###

# TARGET_ENTITY: human P2X3 receptor (Homo sapiens (Human))
# ASSAY_DETAILS: Evaluation of human P2X3 receptor inhibitory activity (Fluo-3 calcium fluorescence, FDSS 3000, ATP stimulation)
# Assay type: cell-based
# CONDITION_DETAILS: C6BU-1 cells stably expressing human P2X3 receptor
QUANTITY_KIND: log10 IC50 (log10 of the value in nM)
The base-10 logarithm of IC50, taken with IC50 in nM, is what appears here.

Here is how some compounds turned out for log10 IC50.
O=C(O)CCCn1c(=O)[nH]/c(=N\c2ccc(Oc3ccncc3)cc2)n(Cc2ccc(Cl)cc2)c1=O ... 1.04
C[C@@H](Oc1ccc(/N=c2\[nH]c(=O)n(CCC(=O)O)c(=O)n2Cc2ccc(Cl)cc2)cc1)C(F)(F)F ... 1.85
CCCn1c(=O)[nH]/c(=N\c2ccc(Oc3ccnc(C(=O)OC)c3)cc2)n(Cc2ccc(Cl)cc2)c1=O ... 0.48
CCn1c(=O)[nH]/c(=N\c2ccc(Oc3cccc(C(=O)O)n3)cc2)n(Cc2ccc(Cl)cc2)c1=O ... 0.70
CCn1c(=O)[nH]/c(=N\c2ccc(Oc3ccnc(C(=O)NC)c3)cc2)n(Cc2ccc(C)cc2)c1=O ... 0.48

Now turn to the next compound.
Exam item: For the compound Cc1nc2ccc(/N=c3\[nH]c(=O)n(CCC(=O)O)c(=O)n3CC3CCC(C)CC3)cc2s1 (stereo not drawn) , what log10 IC50 is on record?
Marked response: 1.00
